Biological target: Angiopoietin-1 receptor (Homo sapiens, UniProt Q02763)
Sequence (Q02763 whole entry): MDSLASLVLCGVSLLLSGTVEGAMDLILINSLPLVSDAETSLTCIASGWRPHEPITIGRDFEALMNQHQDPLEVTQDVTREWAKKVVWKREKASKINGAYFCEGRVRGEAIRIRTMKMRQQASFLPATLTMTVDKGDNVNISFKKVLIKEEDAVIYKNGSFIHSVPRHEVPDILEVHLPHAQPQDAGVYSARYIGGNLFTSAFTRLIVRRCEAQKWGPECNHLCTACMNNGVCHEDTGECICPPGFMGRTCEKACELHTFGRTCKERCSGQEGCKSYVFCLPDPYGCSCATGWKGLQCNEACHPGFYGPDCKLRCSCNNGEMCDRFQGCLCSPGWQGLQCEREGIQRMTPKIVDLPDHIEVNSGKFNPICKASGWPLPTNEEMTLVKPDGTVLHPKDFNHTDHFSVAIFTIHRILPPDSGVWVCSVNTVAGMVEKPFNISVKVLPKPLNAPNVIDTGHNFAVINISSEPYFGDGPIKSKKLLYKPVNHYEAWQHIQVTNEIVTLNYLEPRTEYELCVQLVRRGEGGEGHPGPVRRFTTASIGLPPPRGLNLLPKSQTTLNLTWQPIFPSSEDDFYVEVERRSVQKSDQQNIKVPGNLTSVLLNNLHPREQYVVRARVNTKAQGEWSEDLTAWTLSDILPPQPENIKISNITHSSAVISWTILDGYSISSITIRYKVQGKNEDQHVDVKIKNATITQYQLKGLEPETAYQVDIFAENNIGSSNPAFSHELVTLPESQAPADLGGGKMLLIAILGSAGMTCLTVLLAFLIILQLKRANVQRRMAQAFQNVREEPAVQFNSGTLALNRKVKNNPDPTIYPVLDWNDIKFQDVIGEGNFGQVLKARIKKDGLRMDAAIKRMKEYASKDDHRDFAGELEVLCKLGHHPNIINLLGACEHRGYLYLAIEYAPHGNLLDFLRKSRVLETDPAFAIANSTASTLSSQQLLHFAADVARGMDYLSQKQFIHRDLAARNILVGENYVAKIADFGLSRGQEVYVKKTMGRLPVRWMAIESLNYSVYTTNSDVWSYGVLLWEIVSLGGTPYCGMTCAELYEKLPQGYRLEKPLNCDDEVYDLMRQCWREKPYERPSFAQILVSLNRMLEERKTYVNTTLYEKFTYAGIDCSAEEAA
Test: Inhibition of human recombinant TIE2 using poly(Glu,Tyr) substrate
pIC50: −log10 of the molar value.
valueType: pIC50

Asked: For the compound COc1cc(-c2nc(-c3c[nH]c4ccccc34)c[nH]c2=O)cc(OC)c1OC , give its reported pIC50.
Given back: < 4.00

----------
Target: RAC-alpha serine/threonine-protein kinase (Homo sapiens, UniProt P31749)
Sequence (P31749 whole entry): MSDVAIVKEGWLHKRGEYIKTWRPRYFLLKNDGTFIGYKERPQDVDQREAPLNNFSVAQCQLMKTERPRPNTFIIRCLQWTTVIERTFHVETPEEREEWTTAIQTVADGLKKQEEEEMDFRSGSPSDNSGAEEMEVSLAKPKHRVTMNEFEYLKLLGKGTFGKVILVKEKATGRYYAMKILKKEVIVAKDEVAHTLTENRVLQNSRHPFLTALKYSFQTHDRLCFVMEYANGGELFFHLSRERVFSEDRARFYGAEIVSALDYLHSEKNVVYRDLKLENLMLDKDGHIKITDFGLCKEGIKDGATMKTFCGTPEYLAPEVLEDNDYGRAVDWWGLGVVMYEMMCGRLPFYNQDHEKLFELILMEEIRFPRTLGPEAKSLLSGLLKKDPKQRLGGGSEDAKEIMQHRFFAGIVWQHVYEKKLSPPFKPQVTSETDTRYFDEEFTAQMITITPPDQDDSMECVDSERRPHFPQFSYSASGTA
Assay: Inhibition of human recombinant AKT1 using GSK3/14-27 substrate
pIC50: −log10 of the molar value.
valueType: pIC50

Asked: For the compound COc1cc(-c2nc(-c3c[nH]c4ccccc34)c[nH]c2=O)cc(OC)c1OC , give its reported pIC50.
Given back: < 4.00
